Target: DNA topoisomerase 1 (Homo sapiens)
Test: Inhibition of topoisomerase-1 compared to SN-38.
Readout name: Ratio
Please reply with the value in numeric form only.

Examples from the recorded data:
CC[C@@]1(O)C(=O)OCc2c1cc1n(c2=O)Cc2c-1nc1cc(F)c(F)c3c1c2CCC3O (stereo not given in full)
1.2
CC[C@@]1(O)C(=O)OCc2c1cc1n(c2=O)Cc2c-1nc1cccc3c1c2CCC3
4
CC[C@@]1(O)C(=O)OCc2c1cc1n(c2=O)Cc2c-1nc1cc(F)c(F)c3c1c2CCC3
0.7
CC[C@@]1(O)C(=O)OCc2c1cc1n(c2=O)Cc2c-1nc1ccc(O)c3c1c2CCC3
0.47

# context switch: different compound, same Ratio
Problem: Identify measured Ratio associated with CC[C@@]1(O)C(=O)OCc2c1cc1n(c2=O)Cc2cc3ccccc3nc2-1
Result: 0.39

* * *

Measured Ratio values are reported for all entries that follow.
Biological target: UniProt:P11387
Sequence (whole entry): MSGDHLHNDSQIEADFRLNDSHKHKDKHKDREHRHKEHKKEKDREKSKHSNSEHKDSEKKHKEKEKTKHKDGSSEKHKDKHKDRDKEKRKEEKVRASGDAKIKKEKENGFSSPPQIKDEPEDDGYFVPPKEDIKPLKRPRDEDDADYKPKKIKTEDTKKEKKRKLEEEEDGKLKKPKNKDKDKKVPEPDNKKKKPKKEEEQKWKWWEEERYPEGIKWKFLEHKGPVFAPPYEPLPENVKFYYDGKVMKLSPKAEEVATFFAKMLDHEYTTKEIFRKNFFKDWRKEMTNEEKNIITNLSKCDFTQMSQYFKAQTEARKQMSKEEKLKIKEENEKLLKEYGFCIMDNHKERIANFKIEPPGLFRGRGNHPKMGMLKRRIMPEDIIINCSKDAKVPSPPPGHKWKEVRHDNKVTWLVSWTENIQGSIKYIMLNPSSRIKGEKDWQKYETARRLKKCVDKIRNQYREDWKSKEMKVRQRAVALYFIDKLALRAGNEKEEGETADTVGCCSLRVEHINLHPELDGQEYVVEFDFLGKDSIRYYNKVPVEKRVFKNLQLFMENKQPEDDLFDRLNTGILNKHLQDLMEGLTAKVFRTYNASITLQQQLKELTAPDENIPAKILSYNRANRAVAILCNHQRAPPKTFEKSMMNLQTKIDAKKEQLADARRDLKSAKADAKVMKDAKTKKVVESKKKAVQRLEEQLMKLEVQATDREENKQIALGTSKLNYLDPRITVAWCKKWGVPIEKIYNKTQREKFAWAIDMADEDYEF
Assay: Inhibition of topoisomerase-1 compared to SN-38.

CC[C@@]1(O)C(=O)OCc2c1cc1n(c2=O)Cc2c-1nc1cc(OC)cc3c1c2CCC3
0.7
CCc1c2c(nc3ccc(O)cc13)-c1cc3c(c(=O)n1C2)COC(=O)[C@]3(O)CC [7-ETHYL-10-HYDROXYCAMPTOTHECIN]
1
CC[C@@]1(O)C(=O)OCc2c1cc1n(c2=O)Cc2c-1nc1cc(F)cc3c1c2CCC3
0.24

# context switch: different compound, same Ratio
Problem: Identify measured Ratio associated with CC[C@@]1(O)C(=O)OCc2c1cc1n(c2=O)Cc2c-1nc1ccc(O)c3c1c2CCS3
Result: 1.6

* * *

Measured IC50 values are reported for all entries that follow.
Test system: P388
Experiment: In vitro antitumor activity against P388 (murine leukemia) cells.
Format: functional, cell-based
Conditions: Mus musculus
Could you give me the number in ng/mL? Just the number is fine.

Examples from the recorded data:
CCc1c2c(nc3ccc(O)cc13)-c1cc3c(c(=O)n1C2)COC(=O)[C@]3(O)CC [7-ETHYL-10-HYDROXYCAMPTOTHECIN]
1.44
CC[C@@]1(O)C(=O)OCc2c1cc1n(c2=O)Cc2c-1nc1cccc3c1c2CCC3
5.23
CC[C@@]1(O)C(=O)OCc2c1cc1n(c2=O)Cc2c-1nc1ccc(N)c3c1c2CCO3
2.6

# context switch: different compound, same IC50
Problem: Identify measured IC50 associated with CC[C@@]1(O)C(=O)OCc2c1cc1n(c2=O)Cc2c-1nc1ccc(N)c3c1c2CCS3
Result: 1.08

* * *

Molecular target: DNA topoisomerase 1 (Homo sapiens) (UniProt P11387)
Sequence (whole entry): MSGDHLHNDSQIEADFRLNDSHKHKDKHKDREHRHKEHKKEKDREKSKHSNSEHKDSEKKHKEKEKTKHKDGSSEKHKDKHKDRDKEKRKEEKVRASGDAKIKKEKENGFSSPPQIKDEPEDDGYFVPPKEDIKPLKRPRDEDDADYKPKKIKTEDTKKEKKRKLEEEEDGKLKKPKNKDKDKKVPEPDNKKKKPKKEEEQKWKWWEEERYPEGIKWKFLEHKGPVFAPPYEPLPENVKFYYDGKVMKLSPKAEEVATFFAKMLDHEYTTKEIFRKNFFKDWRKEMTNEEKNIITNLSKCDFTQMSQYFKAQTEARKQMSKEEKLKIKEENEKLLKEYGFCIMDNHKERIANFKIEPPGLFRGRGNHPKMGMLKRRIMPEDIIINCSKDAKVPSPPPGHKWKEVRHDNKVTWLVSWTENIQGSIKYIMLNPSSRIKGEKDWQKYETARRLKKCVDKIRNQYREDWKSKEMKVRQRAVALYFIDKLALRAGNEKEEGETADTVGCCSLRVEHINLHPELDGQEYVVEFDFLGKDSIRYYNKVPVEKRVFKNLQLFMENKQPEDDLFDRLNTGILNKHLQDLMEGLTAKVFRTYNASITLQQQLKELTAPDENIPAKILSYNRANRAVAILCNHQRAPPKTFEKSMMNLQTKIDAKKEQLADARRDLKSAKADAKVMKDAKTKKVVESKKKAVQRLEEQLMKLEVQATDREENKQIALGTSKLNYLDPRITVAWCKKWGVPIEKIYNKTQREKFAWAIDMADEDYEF
Experiment: Inhibition of topoisomerase-1 compared to SN-38.
Readout name: Ratio

CC[C@@]1(O)C(=O)OCc2c1cc1n(c2=O)Cc2c-1nc1ccc(N)c3c1c2CCS3
0.9
CC[C@@]1(O)C(=O)OCc2c1cc1n(c2=O)Cc2c-1nc1cc(F)c(C)c3c1c2CCC3
0.51

Problem: Provide DNA topoisomerase 1 (Homo sapiens) (UniProt P11387) Ratio reading for CC[C@@]1(O)C(=O)OCc2c1cc1n(c2=O)Cc2c-1nc1cc(C)cc3c1c2CCC3 .
Result: 3.6

Problem: Provide DNA topoisomerase 1 (Homo sapiens) (UniProt P11387) Ratio reading for CC[C@@]1(O)C(=O)OCc2c1cc1n(c2=O)Cc2c-1nc1ccc(N)c3c1c2CCO3 .
Result: 1.2

Problem: Provide DNA topoisomerase 1 (Homo sapiens) (UniProt P11387) Ratio reading for CC[C@@]1(O)C(=O)OCc2c1cc1n(c2=O)Cc2c-1nc1cc(Cl)cc3c1c2CCC3 .
Result: 0.23

Problem: Provide DNA topoisomerase 1 (Homo sapiens) (UniProt P11387) Ratio reading for CC[C@@]1(O)C(=O)OCc2c1cc1n(c2=O)Cc2c-1nc1ccc(N)c3c1c2CCC3 .
Result: 1.4

Problem: Provide DNA topoisomerase 1 (Homo sapiens) (UniProt P11387) Ratio reading for CC[C@@]1(O)C(=O)OCc2c1cc1n(c2=O)Cc2c-1nc1cc(O)cc3c1c2CCC3 .
Result: 0.17

Problem: Provide DNA topoisomerase 1 (Homo sapiens) (UniProt P11387) Ratio reading for CC[C@@]1(O)C(=O)OCc2c1cc1n(c2=O)Cc2c-1nc1ccc(C#N)c3c1c2CCC3 .
Result: 3.9

Problem: Provide DNA topoisomerase 1 (Homo sapiens) (UniProt P11387) Ratio reading for CC[C@@]1(O)C(=O)OCc2c1cc1n(c2=O)Cc2c-1nc1cc(N)c(O)c3c1c2CCC3 .
Result: 2.6

* * *

Test system: P388
Assay: In vitro antitumor activity against P388 (murine leukemia) cells.
Assay type: functional, cell-based
Conditions: Mus musculus
Measured IC50 values are reported for all entries that follow.
Could you give me the number in ng/mL? Just the number is fine.

Examples from the recorded data:
CC[C@@]1(O)C(=O)OCc2c1cc1n(c2=O)Cc2c-1nc1cc(F)c(C)c3c1c2CCC3
0.22
CC[C@@]1(O)C(=O)OCc2c1cc1n(c2=O)Cc2c-1nc1cc(O)cc3c1c2CCC3
0.99
CC[C@@]1(O)C(=O)OCc2c1cc1n(c2=O)Cc2c-1nc1cccc3c1c2CCS3
3.04

Problem: Provide P388 IC50 reading for CC[C@@]1(O)C(=O)OCc2c1cc1n(c2=O)Cc2c-1nc1ccc(C#N)c3c1c2CCC3 .
Result: 8.14

Problem: Provide P388 IC50 reading for CC[C@@]1(O)C(=O)OCc2c1cc1n(c2=O)Cc2c-1nc1cc(C)cc3c1c2CCC3 .
Result: 5.05

Problem: Provide P388 IC50 reading for CC[C@@]1(O)C(=O)OCc2c1cc1n(c2=O)Cc2c-1nc1ccc(OC)c3c1c2CCS3 .
Result: 6.49

Problem: Provide P388 IC50 reading for CC[C@@]1(O)C(=O)OCc2c1cc1n(c2=O)Cc2c-1nc1cc(Cl)cc3c1c2CCC3 .
Result: 0.73

Problem: Provide P388 IC50 reading for CC[C@@]1(O)C(=O)OCc2c1cc1n(c2=O)Cc2c-1nc1cc(OC)cc3c1c2CCC3 .
Result: 1.01

// data source = ChEMBL document CHEMBL1131261
